Experiment: physchem
Settings: 50 mM phosphate buffer, pH 6.8, 37 °C, pH 6.8, aqueous buffer, thermodynamic from solid
MEASURED QUANTITY: solubility at 2 h (µg/mL)
Numeric only. Scale: µg/mL

Using the record for O=C(N[C@H](CN1CCCC1)[C@H](O)c1ccc(OC2CC2)c(Cl)c1)/C(=N/O)c1ccc2cc(Cl)ccc2c1 [Crystalline Form A of Compound 1] , report its solubility at 2 h.
10

====

Assay: physchem
Conditions: 50 mM acetate buffer, pH 4.5, 37 °C, pH 4.5, aqueous buffer, thermodynamic from solid
MEASURED QUANTITY: solubility at 24 h (µg/mL)
Numeric only. Scale: µg/mL

Using the record for O=C(N[C@H](CN1CCCC1)[C@H](O)c1ccc(OC2CC2)c(Cl)c1)/C(=N/O)c1ccc2cc(Cl)ccc2c1 [Crystalline Form A of Compound 1] , report its solubility at 24 h.
210
